- Tested on: T-24
- test.summary: Induction of apoptosis n human T24 cells at 1 uM after 24 hrs by annexin V-FITC/propidium iodide staining-based flow cytometric method
- Assay type: functional, cell-based
Activity calls are given as the source filed them. No cut-off for these calls is given here.
Your reply should match one of these outcome classes. active, inactive

Solved entries:
smiles.repr | assigned.class
Cc1cc(O)c2c3c4c(cc(O)c13)C(C)(C)C(=O)c1c(O)c(CN(C)C)c(O)c(c1-4)C2=O | active
Cc1cc(O)c2c3c4c(cc(O)c13)C(C)(C)C(=O)c1c(O)cc(O)c(c1-4)C2=O | inactive
Cc1cc(O)c2c3c4c(cc(O)c13)C(C)(C)C(=O)c1c(O)c(CNC(C)(C)C)c(O)c(c1-4)C2=O | active

Q: Hi, sorry to bother you, what did the test record for "Cc1cc(O)c2c3c4c(cc(O)c13)C(C)(C)C(=O)c1c(O)c(CN3CCC(N)CC3)c(O)c(c1-4)C2=O" ?
Ans: active

---

This listing pairs compounds with measured pIC50.
- Test system: HeLa
- test.summary: Antiproliferative activity against human HeLa cells after 72 hrs by MTT assay
- Assay type: functional, cell-based
// scale note: pIC50 = -log10(conc_M); give the bare number

Here are 2 compounds together with their reported answers.
compound | endpoint.result
Cc1cc(O)c2c3c4c(cc(O)c13)C(C)(C)C(=O)c1c(O)c(CN3CCC(N)CC3)c(O)c(c1-4)C2=O | 5.59
CCN1CCN(Cc2c(O)c3c4c(c2O)C(=O)C(C)(C)c2cc(O)c5c(C)cc(O)c(c5c2-4)C3=O)CC1 | 6.10

Q: What is its pIC50 for HeLa? Entry: Cc1cc(O)c2c3c4c(cc(O)c13)C(C)(C)C(=O)c1c(O)c(CN3CCCC(O)C3)c(O)c(c1-4)C2=O (centres undefined)
Ans: 5.44

Q: Item: "Cc1cc(O)c2c3c4c(cc(O)c13)C(C)(C)C(=O)c1c(O)c(CNCCO)c(O)c(c1-4)C2=O"
Ans: 5.44

---

- Tested on: HeLa
- test.summary: Antiproliferative activity against human HeLa cells after 72 hrs by MTT assay
- Format: functional, cell-based
endpoint: pIC50
// scale note: pIC50 = -log10(conc_M); give the bare number

compound | pIC50
Cc1cc(O)c2c3c4c(cc(O)c13)C(C)(C)C(=O)c1c(O)c(CN(C)C)c(O)c(c1-4)C2=O | 4.55
Cc1cc(O)c2c3c4c(cc(O)c13)C(C)(C)C(=O)c1c(O)c(CNC(C)(C)C)c(O)c(c1-4)C2=O | 6.15
Cc1cc(O)c2c3c4c(cc(O)c13)C(C)(C)C(=O)c1c(O)c(CN3CCN(CCO)CC3)c(O)c(c1-4)C2=O | 5.32
Cc1cc(O)c2c3c4c(cc(O)c13)C(C)(C)C(=O)c1c(O)c(CN(CC(=O)O)CC(=O)O)c(O)c(c1-4)C2=O | 5.19
Cc1cc(O)c2c3c4c(cc(O)c13)C(C)(C)C(=O)c1c(O)cc(O)c(c1-4)C2=O [HELIOMYCIN] | 7.00
Cc1cc(O)c2c3c4c(cc(O)c13)C(C)(C)C(=O)c1c(O)c(CN3CCCCC3)c(O)c(c1-4)C2=O | 6.10

Q: Looking for the measured pIC50 of "Cc1cc(O)c2c3c4c(cc(O)c13)C(C)(C)C(=O)c1c(O)c(CNCCN(C)C)c(O)c(c1-4)C2=O" , can you help?
Ans: 5.41

Q: Item: "CCOC(=O)[C@@H]1CCCN1Cc1c(O)c2c3c(c1O)C(=O)C(C)(C)c1cc(O)c4c(C)cc(O)c(c4c1-3)C2=O"
Ans: 5.89

Q: Item: "Cc1cc(O)c2c3c4c(cc(O)c13)C(C)(C)C(=O)c1c(O)c(CN3CCNCC3)c(O)c(c1-4)C2=O"
Ans: 5.27

Q: Item: "Cc1cc(O)c2c3c4c(cc(O)c13)C(C)(C)C(=O)c1c(O)c(CN3CCCC3)c(O)c(c1-4)C2=O"
Ans: 4.85

Q: Item: "Cc1cc(O)c2c3c4c(cc(O)c13)C(C)(C)C(=O)c1c(O)c(CN3CCN(C)CC3)c(O)c(c1-4)C2=O"
Ans: 5.44

Q: Item: Cc1cc(O)c2c3c4c(cc(O)c13)C(C)(C)C(=O)c1c(O)c(CN3CCC(N)C3)c(O)c(c1-4)C2=O (centres undefined)
Ans: 5.59

Q: Item: "Cc1cc(O)c2c3c4c(cc(O)c13)C(C)(C)C(=O)c1c(O)c(CN3CCOCC3)c(O)c(c1-4)C2=O"
Ans: 4.95

---

- Test system: T-24
- test.summary: Induction of apoptosis n human T24 cells assessed as downregulation of Bcl-2 levels at 0.5 to 1 uM after 18 hrs by Western blot method
- Format: functional, cell-based
Calls of active or inactive are those of the source. No cut-off for these calls is given here.
endpoint: Activity

smiles.repr | endpoint | endpoint.result
Cc1cc(O)c2c3c4c(cc(O)c13)C(C)(C)C(=O)c1c(O)c(CN(C)C)c(O)c(c1-4)C2=O | Activity | Active
Cc1cc(O)c2c3c4c(cc(O)c13)C(C)(C)C(=O)c1c(O)c(CNC(C)(C)C)c(O)c(c1-4)C2=O | Activity | Active
Cc1cc(O)c2c3c4c(cc(O)c13)C(C)(C)C(=O)c1c(O)c(CN3CCC(N)CC3)c(O)c(c1-4)C2=O | Activity | Active

---

- test.summary: Antiproliferative activity against human K562/4 cells after 72 hrs by MTT assay
- Assay type: functional, cell-based
- test.settings: K562/4, 72 h
Response field class: enum, chosen by comparing IC50 against lower segment: < 1000 nM; middle segment: ≥ 1000 nM and < 4000 nM; upper segment: ≥ 4000 nM

compound | assigned.class
Cc1cc(O)c2c3c4c(cc(O)c13)C(C)(C)C(=O)c1c(O)c(CN3CCCCC3)c(O)c(c1-4)C2=O | lower segment
Cc1cc(O)c2c3c4c(cc(O)c13)C(C)(C)C(=O)c1c(O)c(CNCCO)c(O)c(c1-4)C2=O | upper segment
Cc1cc(O)c2c3c4c(cc(O)c13)C(C)(C)C(=O)c1c(O)cc(O)c(c1-4)C2=O [HELIOMYCIN] | lower segment
Cc1cc(O)c2c3c4c(cc(O)c13)C(C)(C)C(=O)c1c(O)c(CN3CCC(N)C3)c(O)c(c1-4)C2=O (stereo not drawn) | upper segment
Cc1cc(O)c2c3c4c(cc(O)c13)C(C)(C)C(=O)c1c(O)c(CN3CCN(C)CC3)c(O)c(c1-4)C2=O | upper segment
Cc1cc(O)c2c3c4c(cc(O)c13)C(C)(C)C(=O)c1c(O)c(CN(CC(=O)O)CC(=O)O)c(O)c(c1-4)C2=O | middle segment
Cc1cc(O)c2c3c4c(cc(O)c13)C(C)(C)C(=O)c1c(O)c(CN3CCNCC3)c(O)c(c1-4)C2=O | upper segment
CCN(CC)Cc1c(O)c2c3c(c1O)C(=O)C(C)(C)c1cc(O)c4c(C)cc(O)c(c4c1-3)C2=O | lower segment
Cc1cc(O)c2c3c4c(cc(O)c13)C(C)(C)C(=O)c1c(O)c(CN3CCCC3)c(O)c(c1-4)C2=O | middle segment
Cc1cc(O)c2c3c4c(cc(O)c13)C(C)(C)C(=O)c1c(O)c(CN3CCN(CCO)CC3)c(O)c(c1-4)C2=O | upper segment

Q: Bin this entry: "CCN1CCN(Cc2c(O)c3c4c(c2O)C(=O)C(C)(C)c2cc(O)c5c(C)cc(O)c(c5c2-4)C3=O)CC1"
Ans: middle segment

Q: Item: "Cc1cc(O)c2c3c4c(cc(O)c13)C(C)(C)C(=O)c1c(O)c(CN3CCOCC3)c(O)c(c1-4)C2=O"
Ans: lower segment

Q: Item: "CCOC(=O)[C@@H]1CCCN1Cc1c(O)c2c3c(c1O)C(=O)C(C)(C)c1cc(O)c4c(C)cc(O)c(c4c1-3)C2=O"
Ans: middle segment

Q: Item: "Cc1cc(O)c2c3c4c(cc(O)c13)C(C)(C)C(=O)c1c(O)c(CNC(C)(C)C)c(O)c(c1-4)C2=O"
Ans: middle segment

Q: Item: Cc1cc(O)c2c3c4c(cc(O)c13)C(C)(C)C(=O)c1c(O)c(CN3CCCC(O)C3)c(O)c(c1-4)C2=O (stereo not drawn)
Ans: lower segment

Q: Item: "Cc1cc(O)c2c3c4c(cc(O)c13)C(C)(C)C(=O)c1c(O)c(CNCCN(C)C)c(O)c(c1-4)C2=O"
Ans: middle segment

---

- System: HCT-116
- test.summary: Antiproliferative activity against p53 deficient human HCT116 cells after 72 hrs by MTT assay
- Format: functional, cell-based
- test.settings: HCT-116, 72 h
This listing pairs molecules with measured pIC50.
// scale note: pIC50 = -log10(conc_M); give the bare number

molecule | pIC50
CCOC(=O)[C@@H]1CCCN1Cc1c(O)c2c3c(c1O)C(=O)C(C)(C)c1cc(O)c4c(C)cc(O)c(c4c1-3)C2=O | 6.00
Cc1cc(O)c2c3c4c(cc(O)c13)C(C)(C)C(=O)c1c(O)cc(O)c(c1-4)C2=O [HELIOMYCIN] | 7.00
Cc1cc(O)c2c3c4c(cc(O)c13)C(C)(C)C(=O)c1c(O)c(CN3CCC(N)C3)c(O)c(c1-4)C2=O (stereo not drawn) | 5.96
Cc1cc(O)c2c3c4c(cc(O)c13)C(C)(C)C(=O)c1c(O)c(CN3CCOCC3)c(O)c(c1-4)C2=O | 6.70

Q: What is its pIC50 for HCT-116? Entry: "Cc1cc(O)c2c3c4c(cc(O)c13)C(C)(C)C(=O)c1c(O)c(CN3CCN(CCO)CC3)c(O)c(c1-4)C2=O"
Ans: 5.89

Q: Item: "Cc1cc(O)c2c3c4c(cc(O)c13)C(C)(C)C(=O)c1c(O)c(CN3CCC(N)CC3)c(O)c(c1-4)C2=O"
Ans: 6.15

Q: Item: Cc1cc(O)c2c3c4c(cc(O)c13)C(C)(C)C(=O)c1c(O)c(CN3CCCC(O)C3)c(O)c(c1-4)C2=O (stereo not drawn)
Ans: 6.05

Q: Item: "Cc1cc(O)c2c3c4c(cc(O)c13)C(C)(C)C(=O)c1c(O)c(CN3CCCCC3)c(O)c(c1-4)C2=O"
Ans: 7.00
